System: IGROV-1
Assay: NCI tumour cell line growth inhibition, 48 h
Active and inactive are the calls of the source. No stated cut-off is given here; in the data, active = GI50 up to about 1.1 µM and inactive = higher.
Possible outcomes: YES for active, NO for inactive

COMPOUND	ANSWER LABEL
CC(NC(=O)CNP(=O)(c1ccccc1)c1ccccc1)C(=O)NC(Cc1ccccc1)C(=O)OCc1ccccc1 (configuration not stated)	NO
COc1ccc(/C=N/N=C(N)N)c(C(=O)O)c1OC	NO
C=C1C(C(O)C[C@H](C)C2O[C@@]3(CCCCO3)CCC2C)O[C@@H]2CCC3(CCC(/C=C/[C@@H](C)C4CC(C)=CC5(O4)O[C@H](C[C@](C)(O)C(=O)O)CCC5O)O3)OC2[C@@H]1O (some centres not stated)	YES
CCCCCCCCCCOC(=O)NCCC	NO
O=C(O)C12C3C4C1C1C2C3C41I (configuration not stated)	NO
COC(C/C(=C/CO[Si](C(C)C)(C(C)C)C(C)C)C(=O)N(COCC[Si](C)(C)C)c1ccccc1I)OC	YES
Cc1ccc2cccc(-c3cccc4ccccc34)c2n1	NO
